Test system: MDA-MB-361
assayDetails: Growth inhibition of human MDA-MB-361 cells at 5 uM incubated for 72 hrs by ATP detection based luminescent assay
Format: functional
conditionDescription: MDA-MB-361, 72 h, read-out: GI
Give inhibition of growth at 5 µM for every item shown.
Give bare numbers, in %.

Example results:
smilesstr=COc1cc(N2CCC(N(C)Cc3ccc(F)cc3)CC2)ncn1 reportedvalue=4.9
smilesstr=CN(Cc1ccccc1C#N)C1CCN(Cc2cnc(Cl)s2)CC1 reportedvalue=-8.5
smilesstr=COc1nccc(N2CCC(N(C)Cc3ccccc3Cl)CC2)n1 reportedvalue=45.1

Give inhibition of growth at 5 µM for all compounds that follow.
1. CSc1nccc(N2CCC(N(C)Cc3ccc(C#N)cc3)CC2)n1
2. COc1nccc(N2CCC(N(C)Cc3cc(Cl)ccc3Cl)CC2)n1
3. CSc1nccc(N2CCC(N(C)Cc3cccc(F)c3)CC2)n1
4. COc1nccc(N2CCC(N(C)Cc3ccccc3C#N)CC2)n1
5. CSc1nccc(N2CCC(N(C)Cc3c(Cl)cccc3Cl)CC2)n1

a:
46.9
22
50.4
53.3
53.2

Hey, can you go through the list below and give me inhibition of growth at 5 µM for every item?
1. CSc1nccc(N2CCC(N(C)Cc3cc(Cl)ccc3Cl)CC2)n1
2. CN(Cc1ccc(F)cc1)C1CCN(Cc2cnc(Cl)s2)CC1
3. COc1nccc(N2CCC(N(C)Cc3ccc(C)cc3)CC2)n1
4. CSc1nccc(N2CCC(N(C)Cc3ccccc3C#N)CC2)n1

a:
[45.7, -1.3, 30.1, 64.1]

State the recorded inhibition of growth at 5 µM for every item in the following list.
1. CSc1nccc(N2CCC(N(C)Cc3ccccc3Cl)CC2)n1
2. COc1nccc(N2CCC(N(C)Cc3ccc(C#N)cc3)CC2)n1
3. Clc1cccc(CNC2CCN(Cc3cnc(Cl)s3)CC2)c1
4. COc1cc(N2CCC(N(C)Cc3cc(Cl)ccc3Cl)CC2)ncn1
5. CN(Cc1cccc(F)c1)C1CCN(Cc2cnc(Cl)s2)CC1
6. COc1nccc(N2CCC(N(C)Cc3cccc(F)c3)CC2)n1
7. CSc1nccc(N2CCC(N(C)Cc3ccc(C)cc3)CC2)n1
8. Cc1ccccc1CN(C)C1CCN(Cc2cnc(Cl)s2)CC1

a:
1: 36.2; 2: 27.7; 3: 3.2; 4: 8.4; 5: 3.2; 6: 8.5; 7: 55.7; 8: 4.4

q: Need inhibition of growth at 5 µM of CN(Cc1c(Cl)cccc1Cl)C1CCN(Cc2cnc(Cl)s2)CC1 , thanks.
a: 36.3

---

Organism: Homo sapiens
assayDetails: Inhibition of HSP70 (unknown origin) at 200 uM pre-incubated for 30 mins followed by ATP addiction and measured after 3 hrs by malachite green reagent based colorimetric assay
Hi there, I'd appreciate the recorded inhibition for every entry that follows.
Write the quantity with the unit trailing the number.

// below: answered molecules
smilesstr=COc1ccc(-c2nc(-c3cc(C(F)(F)F)cc(C(F)(F)F)c3)n(Cc3ccc(C(N)=O)cc3)c2-c2ccc(OC)cc2)cc1 readouttype=inhibition reportedvalue=53.1%
smilesstr=CSc1nccc(N2CCC(N(C)Cc3c(Cl)cccc3Cl)CC2)n1 readouttype=inhibition reportedvalue=12.8%
smilesstr=COc1nccc(N2CCC(N(C)Cc3ccccc3Cl)CC2)n1 readouttype=inhibition reportedvalue=6.11%

Please supply inhibition for each of the following items, keeping them in order.
1. CSc1ncc(CN2CCC(N(C)Cc3ccc(Cl)c(Cl)c3)CC2)s1
2. CSc1nccc(N2CCC(N(C)Cc3ccccc3C#N)CC2)n1

a:
1: 10.7%; 2: 16.7%

The measurements presented in this section are drawn from ChEMBL document CHEMBL3414474.
